biological target: GTPase KRas [G12C] (Homo sapiens, UniProt P01116, G12C); assay: KRAS G12C-GDP Exchange Assay
Sequence (P01116 whole entry G12C): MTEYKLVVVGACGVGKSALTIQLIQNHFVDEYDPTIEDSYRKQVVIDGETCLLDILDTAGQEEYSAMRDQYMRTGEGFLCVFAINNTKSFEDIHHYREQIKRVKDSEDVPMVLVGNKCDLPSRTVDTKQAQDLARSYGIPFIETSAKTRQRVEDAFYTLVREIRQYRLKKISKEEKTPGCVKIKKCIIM
reported property: IC50 (nM)

molecule: C=CC(=O)N1CCN(c2nc(OC[C@@H]3CCCN3C)nc3cc(-c4cccc5cccc(Cl)c45)c(F)cc23)C[C@@H]1CC#N [US20240109893, Example 394]
value reported: 1.44
